conditions: rat, in vivo, iv
Bridge positions count the residues as written; N and C are the ends. Square brackets hold non-standard residues; d marks the D form. Peptide text beside a SMILES is read from it. * marks the point of attachment. Piperazin2one(3S-Bu,6R-CO) = CCCC[C@@H]1NC[C@H](C(=O)*)NC1=O; X2 = N=C(N)NCCC[C@@H]1C(=O)N[C@@H](C(N)=O)CN1*; X1 = N=C(N)NCCC[C@H]1C(=O)N[C@@H](C(N)=O)CN1*; Heptanoyl = CCCCCCC(=O)*; Nle = CCCC[C@H](N)C(=O)O; Orn = NCCC[C@H](N)C(=O)O
Hi! Could you tag entries with clearance below 70 mL/min/kg as 1, and those at or above as -1? Much appreciated.

Previously resolved entries follow.
CCCC[C@@H]1NC[C@H](C(=O)N[C@H]2CSSC[C@@H](C(=O)N[C@@H](Cc3ccc(O)cc3)C(=O)N3C[C@H](C(N)=O)NC(=O)[C@@H]3CCCNC(=N)N)NC(=O)[C@H](CO)NC(=O)[C@H]([C@@H](C)CC)NC(=O)[C@H](CCCNC(=N)N)NC(=O)[C@@H](CC(=O)O)NC(=O)[C@H](CCCC)NC(=O)[C@H](CCCNC(=N)N)NC(=O)CNC(=O)CNC(=O)[C@H](Cc3ccccc3)NC(=O)[C@H](Cc3c[nH]cn3)NC2=O)NC1=O [1-44] ({Piperazin2one(3S-Bu,6R-CO)}-CHFGGR[Nle][dD]RISCY-X1; disulfide 1-12)    1
CCCC[C@@H]1NC[C@H](C(=O)N[C@H]2CSSC[C@@H](C(=O)N[C@@H](Cc3ccc(O)cc3)C(=O)N3C[C@H](C(N)=O)NC(=O)[C@@H]3CCCNC(=N)N)NC(=O)[C@H](CO)NC(=O)[C@H]([C@@H](C)CC)NC(=O)[C@H](CCCNC(=N)N)NC(=O)[C@H](CC(=O)O)NC(=O)[C@H](CCCC)NC(=O)[C@H](CCCN)NC(=O)CNC(=O)CNC(=O)[C@H](Cc3ccccc3)NC(=O)[C@H](Cc3c[nH]cn3)NC2=O)NC1=O [1-54] ({Piperazin2one(3S-Bu,6R-CO)}-CHFGG[Orn][Nle]DRISCY-X1; disulfide 1-12)    1
CCCC[C@@H]1NC[C@H](C(=O)N[C@H]2CSSC[C@@H](C(=O)N[C@@H](Cc3ccc(O)cc3)C(=O)N3C[C@H](C(N)=O)NC(=O)[C@@H]3CCCNC(=N)N)NC(=O)[C@H](CO)NC(=O)[C@H]([C@@H](C)CC)NC(=O)[C@H](CCCNC(=N)N)NC(=O)[C@H](CC(=O)O)NC(=O)[C@H](CCCC)NC(=O)[C@H](CCCNC(=N)N)NC(=O)CNC(=O)CNC(=O)[C@H](Cc3ccccc3)NC(=O)[C@H](Cc3c[nH]cn3)NC2=O)NC1=O [1-18] ({Piperazin2one(3S-Bu,6R-CO)}-CHFGGR[Nle]DRISCY-X1; disulfide 1-12)    1
CCCCCCC(=O)N[C@H]1CSSC[C@@H](C(=O)N[C@@H](Cc2ccc(O)cc2)C(=O)N2C[C@H](C(N)=O)NC(=O)[C@@H]2CCCNC(=N)N)NC(=O)[C@H](CO)NC(=O)[C@H]([C@@H](C)CC)NC(=O)[C@H](CCCNC(=N)N)NC(=O)[C@H](CC(=O)O)NC(=O)[C@H](CCCC)NC(=O)[C@H](CCCNC(=N)N)NC(=O)CNC(=O)CNC(=O)[C@H](Cc2ccccc2)NC(=O)[C@H](Cc2c[nH]cn2)NC1=O [1-63] (Heptanoyl-CHFGGR[Nle]DRISCY-X1; disulfide 1-12)    -1

State whether 70 mL/min/kg exceeds clearance recorded for CCCC[C@@H]1NC[C@H](C(=O)N[C@H]2CSSC[C@@H](C(=O)N[C@@H](Cc3ccc(O)cc3)C(=O)N3C[C@H](C(N)=O)NC(=O)[C@@H]3CCCNC(=N)N)NC(=O)[C@H](CO)NC(=O)[C@H]([C@@H](C)CC)NC(=O)[C@H](CCCN)NC(=O)[C@H](CC(=O)O)NC(=O)[C@H](CCCC)NC(=O)[C@H](CCCNC(=N)N)NC(=O)CNC(=O)CNC(=O)[C@H](Cc3ccccc3)NC(=O)[C@H](Cc3c[nH]cn3)NC2=O)NC1=O [1-55] ({Piperazin2one(3S-Bu,6R-CO)}-CHFGGR[Nle]D[Orn]ISCY-X1; disulfide 1-12) .
1

Record: CCCCCCC(=O)N[C@H]1CSSC[C@@H](C(=O)N[C@@H](Cc2ccc(O)cc2)C(=O)N2C[C@H](C(N)=O)NC(=O)[C@@H]2CCCNC(=N)N)NC(=O)[C@H](CO)NC(=O)[C@H]([C@@H](C)CC)NC(=O)[C@H](CCCNC(=N)N)NC(=O)[C@H](CC(=O)O)NC(=O)[C@H](CCCC)NC(=O)[C@H](CCCNC(=N)N)NC(=O)CNC(=O)[C@@H](C)NC(=O)[C@H](Cc2ccccc2)NC(=O)[C@H](Cc2c[nH]cn2)NC1=O [1-130] (Heptanoyl-CHF[dA]GR[Nle]DRISCY-X1; disulfide 1-12)
-1

Record: CCCC[C@@H]1NC[C@H](C(=O)N[C@H]2CSSC[C@@H](C(=O)N[C@@H](Cc3ccc(O)cc3)C(=O)N3C[C@H](C(N)=O)NC(=O)[C@H]3CCCNC(=N)N)NC(=O)[C@H](CO)NC(=O)[C@H]([C@@H](C)CC)NC(=O)[C@@H](CCCNC(=N)N)NC(=O)[C@H](CC(=O)O)NC(=O)[C@H](CCCC)NC(=O)[C@@H](CCCNC(=N)N)NC(=O)CNC(=O)CNC(=O)[C@H](Cc3ccccc3)NC(=O)[C@H](Cc3c[nH]cn3)NC2=O)NC1=O [1-118] ({Piperazin2one(3S-Bu,6R-CO)}-CHFGG[dR][Nle]D[dR]ISCY-X2; disulfide 1-12)
1
